# Tested System: Albumin (Homo sapiens, UniProt P02768)
# Sequence (P02768 whole entry): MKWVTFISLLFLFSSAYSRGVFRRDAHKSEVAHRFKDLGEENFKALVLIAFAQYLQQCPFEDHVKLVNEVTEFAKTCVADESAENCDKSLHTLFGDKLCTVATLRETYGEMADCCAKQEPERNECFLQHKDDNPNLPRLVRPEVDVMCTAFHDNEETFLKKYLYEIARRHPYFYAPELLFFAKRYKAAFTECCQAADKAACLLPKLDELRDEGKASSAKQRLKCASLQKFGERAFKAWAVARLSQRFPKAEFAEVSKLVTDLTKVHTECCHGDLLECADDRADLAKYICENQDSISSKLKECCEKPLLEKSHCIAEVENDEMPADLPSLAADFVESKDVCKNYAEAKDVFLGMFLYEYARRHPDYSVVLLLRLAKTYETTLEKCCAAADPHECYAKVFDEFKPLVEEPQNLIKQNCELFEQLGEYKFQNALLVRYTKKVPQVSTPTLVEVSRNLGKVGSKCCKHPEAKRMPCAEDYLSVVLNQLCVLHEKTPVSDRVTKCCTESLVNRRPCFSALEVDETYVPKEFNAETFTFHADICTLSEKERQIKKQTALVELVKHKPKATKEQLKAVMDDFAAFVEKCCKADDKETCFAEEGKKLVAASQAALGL
# Experiment Summary: Human serum albumin index was measured by retention time on an HPLC column containing human albumin
Measured Property: HSAI
Field format: numeric only.

A selection of reference data follows.
COc1cccc(-c2c(O)nc3cc(Cl)ccc3c2O)c1	10
Oc1nc2cc(Cl)ccc2c(O)c1-c1cccc(NCc2ccsc2)c1	68
Cc1cccc(-c2c(O)nc3cc(Cl)ccc3c2O)c1	14
COc1ccc(-c2c(O)c3ccc(Cl)cc3[nH]c2=O)cc1	8

Exercise: Requested read-out: HSAI. Entry: O=C(O)c1cc(O)c2ccc(Cl)cc2n1
Key: 2

Exercise: I would be grateful if you could share the reported HSAI for Oc1nc2cc(Cl)ccc2c(O)c1-c1ccco1 .
Key: 6

Exercise: Which HSAI is reported for this molecule? CCOC(=O)c1c(O)c2ccc([N+](=O)[O-])cc2[nH]c1=O
Key: 1

Exercise: Given CC/C=C1\NC(=O)C(c2cccc(Oc3ccccc3)c2)=C1O , state its recorded HSAI.
Key: 42

Exercise: So what does the record say about HSAI for Cn1cccc1-c1c(O)nc2cc(Cl)ccc2c1O ?
Key: 3

---

# Tested System: Albumin (Homo sapiens, UniProt P02768)
# Experiment Summary: Human serum albumin index was measured by retention time on an HPLC column containing human albumin
Measured Property: HSAI
The answer should be a number; do not append a unit.

Worked cases, answers included:
O=C(OCCc1cccs1)c1c(O)nc2cc(Cl)ccc2c1O	44
Oc1nc2cc(Cl)ccc2c(O)c1-c1cccc(OCc2ccccc2)c1	118

Exercise: Name the reported HSAI value associated with the compound Cc1ccc(-c2c(O)nc3cc(Cl)ccc3c2O)cc1
Key: 13

Exercise: I would be grateful if you could share the reported HSAI for Cc1ccccc1Oc1cccc(-c2c(O)nc3cc(Cl)ccc3c2O)c1 .
Key: 163

Exercise: // lookup HSAI for CN(C)Cc1sccc1Oc1cccc(-c2c(O)nc3cc(Cl)ccc3c2O)c1
Key: 13

Exercise: Name the reported HSAI value associated with the compound CN(Cc1cccc(-c2c(O)nc3cc(Cl)ccc3c2O)c1)c1ccccc1
Key: 140
